target.of.assay: T1, human CD8A-Fc (recombinant human CD8 alpha fused to Fc fragment of human IgG1) (human, UniProt P01732 22-182, limits assumed)
T1 construct: SPR ligand, captured by goat anti-human Fc; also called hCD8A-Fc; recombinant CD8 alpha; not shown: linker with flag (and polyhistidine) tag and Fc fragment of human IgG1; depends on which of the two constructs was used
assay.comment: SPR on recombinant human CD8 alpha after DFO conjugation, higher affinity population
experimental.readout: pKd
# pKd is unitless: minus log10 of the molar concentration; print number only

binder: CD8S365-DFO (designed binder, deferoxamine (DFO) conjugated to the free cysteine introduced by E54C, DFO conjugate of CD8S365) LPAPKNLVVSRVTEDSARLSWTAPDAAFDSFGILYYEPVDSGEAITLPVPGSCRSYDLTGLKPGTEYWVVITGVKGGAPSTPLGTIFTT
pKd: 9.22

binder: CD8S366-DFO (designed binder, deferoxamine (DFO) conjugated to the free cysteine introduced by E54C, DFO conjugate of CD8S366) LPAPKNLVVSRVTEDSARLSWTAPDAAFDSFWITYPEWPDPGGEAIVLTVPGSCRSYDLTGLKPGTEYFVVIYGVKGGEIYSPLSAIFTT
pKd: 9.05

binder: CD8S368-DFO (designed binder, deferoxamine (DFO) conjugated to the free cysteine introduced by E54C, DFO conjugate of CD8S368) LPAPKNLVVSRVTEDSARLSWTAPDAAFDSFQIAYPEWPPPGEAIVLTVPGSCRSYDLTGLKPGTEYFVIIQGVKGGVESWPLSAIFTT
pKd: 9.64

Qu. pKd for CD8S367-DFO (designed binder, deferoxamine (DFO) conjugated to the free cysteine introduced by E54C, DFO conjugate of CD8S367) LPAPKNLVVSRVTEDSARLSWTAPDAAFDSFAIAYPEWPPQGEAIVLTVPGSCRSYDLTGLKPGTEYFVVIYGVKGGSYSAPLSAIFTT ?
Ans. 8.81
